Protocol: pKa determination
Type: physicochemical
Metric name: pKa
Note: the reply should be a number with no unit written.

[ask] For C[C@]1(C(N)=O)CC[C@@H](n2c(Nc3c(Cl)cc(Cl)cc3Cl)nc3cnc(N[C@@H]4CCOC[C@H]4F)nc32)CC1 (relative stereo) [Compound 1 free base] , what is its reported pKa?
[reply] 5.14

====

Protocol: Solubility study (water, SGF, SIF, preclinical vehicle, bio-relevant media)
Type: physicochemical
Conditions used: simulated intestinal fluid (SIF), pH 7.3, fassgf or other biorelevant; read-out: solubility
Procedure: Solubility Study: Compound 1 free base pKa was determined to be 5.14. […] Solubility in the preclinical formulation, 0.5% CMC/0.25% Tween 80, was determined to be 0.18 mg/ml at pH 8.1.
Metric name: solubility (µg/mL)
Give just the numeric value; µg/mL need not be written.

[ask] For C[C@]1(C(N)=O)CC[C@@H](n2c(Nc3c(Cl)cc(Cl)cc3Cl)nc3cnc(N[C@@H]4CCOC[C@H]4F)nc32)CC1 [Compound 1] , what is its reported solubility?
[reply] 2

====

Protocol: Solubility study (water, SGF, SIF, preclinical vehicle, bio-relevant media)
Type: physicochemical
Conditions used: 0.5% CMC/0.25% Tween 80 (preclinical formulation), aqueous with cosolvent or surfactant or cyclodextrin; preclinical formulation 0.5% CMC/0.25% Tween 80, pH 8.1; read-out: solubility
Metric name: solubility (µg/mL)
Give just the numeric value; µg/mL need not be written.

[ask] For C[C@]1(C(N)=O)CC[C@@H](n2c(Nc3c(Cl)cc(Cl)cc3Cl)nc3cnc(N[C@@H]4CCOC[C@H]4F)nc32)CC1 [Compound 1] , what is its reported solubility?
[reply] 180
